- measurement-target: human GPC3 (Glypican-3) (human, UniProt P51654 25-580)
- measurement-notes: cell-based or functional assay
property-name: internalization on HepG2 cells (pHAb dye-labelled anti-hIgG secondary antibody, 48 h): Top
Write no unit; give the number alone.

Which internalization on HepG2 cells (pHAb dye-labelled anti-hIgG secondary antibody, 48 h): Top reading was recorded for the binder Y035 CDRs with Hu 52H5D3B8-7 FRs (antibody, V domains shown, built here from the pieces; detected with anti-human IgG) VH: EVQLVQSGAEVKKPGASVKVSCKASGYTFTDYEMHWVRQAPGQGLEWMGAIHPGSGDTAYNQRFKGRVTMTADKSISTAYMELSRLRSDDTAVYYCTRFYSYAYWGQGTLVTVSS VL: DVVMTQTPLSLSVTPGQPASISCRSSQSLVHSNGNTYLQWYLQKPGQSPQLLIYKVSNRFSGVPDRFSGSGSGTDFTLKISRVEAEDVGVYYCSQSIYVPYTFGGGTKVEIK ?
52200

The measured values listed here are drawn from patent EP4591887A1.
